# Test system: HOP-62 NSCLC
# Protocol: NCI tumour cell line growth inhibition, 48 h
Quantity Kind: TGI (µM)

>>> print(df.to_string())
                                    compound  quantity_kind  qualifier_operator  result_number
 0  O=C(NC(c1ccccc1)C(O)C(=O)OCc1ccc2c(c1)C(=O)c1ccccc1C2=O)c1ccccc1 (stereo unspecified)            TGI                   =           9.82
 1  COc1ccc(/C=C2\CC(C)CC3C2=NN(C(C)=O)C3c2ccc(OC)c(OC)c2)cc1OC (stereo unspecified)            TGI                   =           37.2
 2  O=C(/C=C/CN1CCCCC1)Nc1cc2c(Nc3ccc(F)c(Cl)c3F)ncnc2cc1OCCOC(F)F            TGI                   =           7.04
 3                            OB1OCc2ccccc21            TGI                   =           62.9
 4                      CCCCc1ccc(C(N)=O)nc1            TGI                   >            100
 5                         Cc1cccc2ns[s+]c12            TGI                   >            100
 6  COc1ccc2c(c1)CCC1C2CCC2(C)C1CC[C@@]2(O)CNC(=O)/C=C/c1ccc(O)c(O)c1 (stereo partly specified)            TGI                   =           79.1
 7  CCc1cccc(C(C)C)c1C1C(=O)C(=O)N(c2nc3ccccc3s2)C(=O)C1=O            TGI                   >            100
 8   O=C(C(=O)n1ccc2ccccc21)c1c[nH]c2ccccc12            TGI                   >             10
 9   C#Cc1cccc(NC(=O)Nc2cccc(NC(=O)CCl)c2)c1            TGI                   >           82.5
10    CN(C)CCCN1c2ccc3ccccc3c2Sc2cccc(Cl)c21            TGI                   =           9.32

###

# Test system: HT29 colon
# Protocol: NCI tumour cell line growth inhibition, 48 h
Quantity Kind: TGI (µM)

In [3]: df
Out[3]:
                                smiles_code  quantity_kind  qualifier_operator  result_number
0      Cc1ccc(-c2cn3c(nc4ccccc43)c(C)n2)cc1            TGI                   >            100
1  CN(C)CCCn1c2c(c3ccncc3c1=O)C(=O)c1ccccc1-2            TGI                   =           13.1
2     Cc1c2cccc-2c(N(C)C)cc2c1[nH]c1ccccc12            TGI                   =           18.2

###

# Test system: SK-MEL-2 melanoma
# Protocol: NCI tumour cell line growth inhibition, 48 h
Quantity Kind: GI50

Compound	Target Desc	Result
COc1ccc(/C=C2\CN(Cc3cn(CCCNc4ccnc5cc(Cl)ccc45)nn3)C/C(=C\c3ccc(OC)cc3)C2=O)cc1	SK-MEL-2 melanoma	9.85 µM
O=C(/C=C\c1ccc(Cl)c(Cl)c1)c1ccccc1	SK-MEL-2 melanoma	13.8 µM
CCCCCCn1c(=N)n(CC(O)COc2cccc(C)c2)c2ccccc21 (stereo not drawn)	SK-MEL-2 melanoma	1.91 µM
CC(=O)OC1C(OC/C2=C/C3[C@@H](C(C)C)CC=C(C)[C@@H]3CC(OC(=O)/C=C/c3cn(C)cn3)[C@]3(C)C=C[C@@]2(O)O3)OCC(O)C1O (stereo partly drawn)	SK-MEL-2 melanoma	0.0199 µM
CCCCCCCCCCCCOC1C(C(COC2OC(C(O)CO)C3OC(C)(C)OC23)OC(=O)Nc2ccc([N+](=O)[O-])cc2)OC2OC(C)(C)OC21 (stereo not drawn)	SK-MEL-2 melanoma	2.09 µM
C=CC(=O)N1CC[C@@H](Oc2nc(Nc3ccc(N4CCC(N5CCN(C)CC5)CC4)cc3)c(C(N)=O)nc2CC)C1	SK-MEL-2 melanoma	> 100 µM
Nc1cc(N)c2nc(-c3ccccc3)c(Sc3ccc(F)cc3)nc2c1	SK-MEL-2 melanoma	38.4 µM
Cc1ccc(S(=O)(=O)NC(CCCCN)C(=O)CCl)cc1 (stereo not drawn)	SK-MEL-2 melanoma	67.5 µM
C[As](C)SCC(COC(=O)c1ccccc1)OC(=O)c1ccccc1 (stereo not drawn)	SK-MEL-2 melanoma	0.4 µM
O=C(/C=C/CN1CCCCC1)Nc1cc2c(Nc3ccc(F)c(Cl)c3F)ncnc2cc1OCCOC(F)F	SK-MEL-2 melanoma	1.85 µM
COc1cc2c(c(OC)c1OC)-c1c(c3ccc([N+](=O)[O-])cc3c(=O)n1CCCN=[N+]=[N-])C2=O	SK-MEL-2 melanoma	2.49 µM
Cn1cnc2nc(Cl)nc(Cl)c21	SK-MEL-2 melanoma	2.7 µM
COc1ccc2c(c1)CCC1C2CCC2(C)C1CC[C@@]2(O)CNC(=O)/C=C/c1ccc(O)c(O)c1 (stereo partly drawn)	SK-MEL-2 melanoma	5.59 µM
O=C1/C(=C/c2ccc([N+](=O)[O-])s2)Oc2ccc(Cl)cc21	SK-MEL-2 melanoma	0.26 µM
CC1SC(c2cccc(Oc3ccccc3)c2)N(CCc2cccs2)C1=O (stereo not drawn)	SK-MEL-2 melanoma	1.03 µM
COc1cc2c(cc1Nc1nc(Nc3ccsc3C(N)=O)c3cc[nH]c3n1)N(C(=O)CN(C)C)CCC2	SK-MEL-2 melanoma	0.726 µM
COc1ccc(C2CC(c3cccc(Nc4ccnc5cc(Cl)ccc45)c3)=NN2c2ccc(Cl)cc2)cc1 (stereo not drawn)	SK-MEL-2 melanoma	11.5 µM
CCOC(=O)C(Cc1ccc(N(CCCl)CCCl)cc1)NC(=O)C(CC(C)C)NC(C)=O (stereo not drawn)	SK-MEL-2 melanoma	2.61 µM

###

# System: K-562 leukemia
# Protocol: NCI tumour cell line growth inhibition, 48 h; in the data active = GI50 below about 0.43 µM; inactive = the rest
Possible outcomes: true (active), false (inactive)

In [3]: df
Out[3]:
                                   molecule  qualitative_label
0  CCCCCCn1c(=N)n(CC(O)COc2cccc(C)c2)c2ccccc21 (centres undefined)              false
1  COc1ccc(-c2nccn2-c2cc(OC)c(OC)c(OC)c2)cc1              false
2  CN1CCN(Cc2ccc(NC(=O)c3cncc(C#Cc4c(N)ncc5ccc(F)cc45)c3)cc2C(F)(F)F)CC1               true
3  Cc1nn(-c2ccccc2)c2ncc3c(c12)C(=O)N(Cc1ccccc1)C3=O              false

###

# System: KM12 colon
# Protocol: NCI tumour cell line growth inhibition, 48 h
Quantity Kind: TGI (µM)

>>> print(df.to_string())
                                   compound  qualifier_operator  result_number
0     Cc1c2cccc-2c(N(C)C)cc2c1[nH]c1ccccc12                   =           7.98
1  CC(C)(C)OC(=O)N1CC(COS(C)(=O)=O)c2ccc(O)cc21 (stereo not given)                   =           7.16
2  Cn1c([N+](=O)[O-])cnc1/C=C1\Oc2ccc(Cl)cc2C1=O                   =           1.47
3  O=C1c2ccccc2CC1C1(O)C(=O)Nc2c(Cl)cc(Cl)cc21 (stereo not given)                   >            100
4          CC(C)(C)C(=O)C(C#N)C(=O)C(C)(C)C                   >            100
5  NCCN.O=N[O-].O=N[O-].O=N[O-].O=N[O-].[Co+3].[K+]                   >            100
6  Cc1ccc(-c2c(C#N)c(O)n(NS(=O)(=O)c3ccccc3)c(=O)c2C#N)cc1                   >            100
7  CN(C)CCCn1c2c(c3ccncc3c1=O)C(=O)c1ccccc1-2                   =           11.5
8  Oc1ccc(-c2nc(-c3ccc4oc5ccc(-c6[nH]c(-c7ccc(O)cc7)nc6-c6ccccc6)cc5c4c3)c(-c3ccccc3)[nH]2)cc1                   =           7.92
9  COc1cc(C2c3cc4c(c(O)c3C(=O)C3CCC(=O)N32)OCO4)cc(OC)c1OC (stereo not given)                   >            100
